Target: dopamine D-1 receptor (Rattus norvegicus, UniProt P18901)
Construct: Striatal tissue was excised, pooled, and homogenized; from tissue; host or cells: rat striatum, washed membrane pellet (male Sprague-Dawley rats, Charles River)
Sequence (P18901 whole entry): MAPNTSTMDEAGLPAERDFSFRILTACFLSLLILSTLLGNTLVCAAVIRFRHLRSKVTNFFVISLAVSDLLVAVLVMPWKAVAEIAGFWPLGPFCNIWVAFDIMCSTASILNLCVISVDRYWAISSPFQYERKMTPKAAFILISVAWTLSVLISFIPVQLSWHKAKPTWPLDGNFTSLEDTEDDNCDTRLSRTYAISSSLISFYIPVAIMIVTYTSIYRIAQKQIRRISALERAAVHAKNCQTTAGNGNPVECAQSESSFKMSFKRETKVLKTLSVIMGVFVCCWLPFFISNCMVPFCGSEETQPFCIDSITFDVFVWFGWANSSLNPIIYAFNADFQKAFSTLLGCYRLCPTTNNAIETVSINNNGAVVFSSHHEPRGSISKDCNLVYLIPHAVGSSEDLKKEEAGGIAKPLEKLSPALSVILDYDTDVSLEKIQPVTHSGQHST
Experiment: Competitive inhibition assay, displacement of 3H-SCH 23390 (D-1 receptor binding)
Parameters: species or system rat (male Sprague-Dawley, striatal tissue)
Settings: rat striatum, 3H-SCH 23390 0.3 nM, pH 7.4, 37° C., 15 min; read-out: Ki, 3H-23390
Parameter pKi: see the listing below.
Convention used: pKi is expressed as -log10 of the molar concentration.

Reference set (4 entries):
compound	quantitative_readout
COc1cc2c(cc1O)[C@H]1c3ccccc3CCC[C@@H]1N(C)CC2 (relative stereo) [CH2, 2, trans, CH3O, OH]	6.53
CN1CCc2ccc(O)cc2[C@@H]2c3ccccc3OC[C@H]21 (relative stereo) [O, 1, trans, H, OH]	6.92
Cc1cc2c(cc1O)[C@H]1c3ccccc3CC[C@@H]1N(C)CC2 (relative stereo) [CH2, 1, trans, CH3, OH]	6.92
COc1cc2c(cc1O)[C@H]1c3ccccc3CC[C@H]1N(C)CC2 (relative stereo) [CH2, 1, cis, CH3O, OH]	5.19

Please examine the following record next.
Query: What is its pKi for dopamine D-1 receptor (Rattus norvegicus, UniProt P18901)? Entry: COc1cc2c(cc1O)CCN(C)[C@H]1CCCc3ccccc3[C@H]21 (relative stereo) [CH2, 2, trans, HO, CH3O]
Reply: 5.11

* * *

The compounds listed here are annotated with their pKi.
Biological target: D-2 receptor (Rattus norvegicus, UniProt P61169)
Construct: Striatal tissue was excised, pooled, and homogenized; from tissue; host or cells: rat striatum, washed membrane pellet (male Sprague-Dawley rats, Charles River)
Sequence (P61169 whole entry): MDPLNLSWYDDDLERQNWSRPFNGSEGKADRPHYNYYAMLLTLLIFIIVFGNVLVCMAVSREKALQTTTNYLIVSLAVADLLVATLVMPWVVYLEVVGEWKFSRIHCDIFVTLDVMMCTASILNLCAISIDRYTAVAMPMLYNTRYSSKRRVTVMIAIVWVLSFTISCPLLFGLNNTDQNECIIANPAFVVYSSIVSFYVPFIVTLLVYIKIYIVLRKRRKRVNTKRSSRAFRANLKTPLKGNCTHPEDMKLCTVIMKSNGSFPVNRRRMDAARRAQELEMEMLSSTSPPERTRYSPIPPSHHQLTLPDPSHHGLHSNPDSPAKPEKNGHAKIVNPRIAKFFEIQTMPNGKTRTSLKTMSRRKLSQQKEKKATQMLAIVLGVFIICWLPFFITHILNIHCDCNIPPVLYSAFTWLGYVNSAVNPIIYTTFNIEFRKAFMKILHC
Experiment: Competitive inhibition assay, displacement of 3H-spiperone (D-2 receptor binding)
Design: species or system rat (male Sprague-Dawley, striatal tissue)
Settings: rat striatum, 3H-spiperone 0.2 nM, pH 7.4, 37° C., 15 min; read-out: Ki, 3H-Spip
Excerpt: Many compounds capable of effecting reproducible physiological changes in neural tissues are believed to operate by binding at one or more receptor sites. […]
When answering, recall that pKi equals minus log10 of the concentration in mol/L, and write that number alone.

Query: Fill blank: measured pKi of the compound CN1CCc2ccc(O)cc2[C@H]2c3ccccc3CC[C@@H]21 (relative stereo) [CH2, 1, trans, H, OH] is ____.
Reply: 5.46

Query: Please report the recorded pKi for CN1CCc2cc(Cl)c(N)cc2[C@H]2c3ccccc3CC[C@@H]21 (relative stereo) [CH2, 1, trans, Cl, NH2] .
Reply: 5.38

Query: Returns the measured pKi for the input compound. Input: CN1CCc2cc(Cl)c(O)cc2[C@@H]2c3ccccc3C[C@H]21 (relative stereo) [CH2, 0, trans, Cl, OH]
Reply: 5.59

* * *

Target: dopamine D-1 receptor (Rattus norvegicus, UniProt P18901)
Construct: Striatal tissue was excised, pooled, and homogenized; from tissue; host or cells: rat striatum, washed membrane pellet (male Sprague-Dawley rats, Charles River)
Test: Competitive inhibition assay, displacement of 3H-SCH 23390 (D-1 receptor binding)
Parameters: species or system rat (male Sprague-Dawley, striatal tissue)
measurement_label: Ki (nM)
Record the value in nM, omitting the unit from your answer.

Below are worked cases with known answers.
compound	Ki, nM
CN1CCc2cc(Cl)c(O)cc2[C@@H]2c3ccccc3C[C@H]21 (relative stereo) [CH2, 0, trans, Cl, OH]	10
CN1CCc2cc(Cl)c(N)cc2[C@H]2c3ccccc3CC[C@@H]21 (relative stereo) [CH2, 1, trans, Cl, NH2]	70
COc1cc2c(cc1O)[C@H]1c3ccccc3CC[C@@H]1N(C)CC2 (relative stereo) [CH2, 1, trans, CH3O, OH]	23

Then there is this compound:
Query: Which Ki value is on record for CN1CCc2ccc(O)cc2[C@H]2c3ccccc3CC[C@@H]21 (relative stereo) [CH2, 1, trans, H, OH] ?
Reply: 80
